protocol_notes: Rat brain and blood microdialysis at steady state
reported_conditions: male, Sprague-Dawley, rat, in vivo, iv, C m,brain, steady‐state unbound concentration in brain (right striatum), microdialysis, IV infusion, mean ± SD
Field: concentration at 6 h. Provide a value for each of the compounds that follow.
Give bare numbers, in nM.

A selection of reference data follows.
- Nc1nc2[nH]cc(CCc3ccc(C(=O)N[C@@H](CCC(=O)O)C(=O)O)cc3)c2c(=O)[nH]1: 31.3
- Nc1nnc(-c2cccc(Cl)c2Cl)c(N)n1: 757

Continue with the compound presented below.
IN: So what's the measured concentration at 6 h for this one? CN(C)CCCC1(c2ccc(F)cc2)OCc2cc(C#N)ccc21 (stereo not drawn)
OUT: 954

---

Field: log10 half-life. Provide a value for each of the molecules that follow.
protocol_notes: Rat pharmacokinetic study, IV single bolus
reported_conditions: male, Sprague-Dawley, in vivo, iv
Parameter value (number): base-10 log of half-life in h.

A selection of reference data follows.
* Cn1c(=O)c2[nH]cnc2n(C)c1=O [Theophylline, theophylline] | 0.53
* COc1ccc([C@@H]2Sc3ccccc3N(CCN(C)C)C(=O)[C@@H]2OC(C)=O)cc1 [Diltiazem, diltiazem] | -0.08
* Nc1nnc(-c2cccc(Cl)c2Cl)c(N)n1 [Lamotrigine, lamotrigine] | 1.19
* CC1COc2c(N3CCN(C)CC3)c(F)cc3c(=O)c(C(=O)O)cn1c23 (centres unmarked) [Ofloxacin, ofloxacin] | 0.80
* CC(=O)Nc1ccc(O)cc1 [Acetaminophen] | 0.70

Give log10 half-life for each listed item.
1. CC(C)NCC(O)COc1cccc2ccccc12 (centres unmarked) [Propranolol, propranolol]
2. Cc1cc(=O)n(-c2ccccc2)n1C [Antipyrine]
3. Nc1nc(O)c2ncn(COC(CO)CO)c2n1 [Ganciclovir, ganciclovir]
4. CN/C(=N/CCSCc1nc[nH]c1C)NC#N [Cimetidine]
5. Nc1nc2[nH]cc(CCc3ccc(C(=O)N[C@@H](CCC(=O)O)C(=O)O)cc3)c2c(=O)[nH]1 [Pemetrexed, pemetrexed]
6. CNS(=O)(=O)Cc1ccc2[nH]cc(CCN(C)C)c2c1 [Sumatriptan, sumatriptan]

OUT:
-0.03
0.30
0.13
0.77
0.70
-0.01

---

protocol_notes: Bidirectional permeability in parental MDCK cells
Format: in vitro ADME, Canine
reported_conditions: dog, MDCK
In plain terms, low Papp B→A at 2 h, 1 μmol/L, meaning strictly below 30 nm/s, gives met, and everything else gives not met.

# count of solved cases: 7
• Nc1nc2[nH]cc(CCc3ccc(C(=O)N[C@@H](CCC(=O)O)C(=O)O)cc3)c2c(=O)[nH]1 = met
• CN(C)CCCC1(c2ccc(F)cc2)OCc2cc(C#N)ccc21 (centres unmarked) = not met
• C[C@H]1O[C@@H](O[C@H]2[C@@H](O)C[C@H](O[C@H]3[C@@H](O)C[C@H](O[C@H]4CC[C@@]5(C)[C@H](CC[C@@H]6[C@@H]5C[C@@H](O)[C@]5(C)[C@@H](C7=CC(=O)OC7)CC[C@]65O)C4)O[C@@H]3C)O[C@@H]2C)C[C@H](O)[C@@H]1O = met
• CC(C)NCC(O)COc1cccc2ccccc12 (centres unmarked) = not met
• CC(=O)Nc1ccc(O)cc1 = not met
• COc1ccc([C@@H]2Sc3ccccc3N(CCN(C)C)C(=O)[C@@H]2OC(C)=O)cc1 = not met
• CN/C(=N/CCSCc1nc[nH]c1C)NC#N = met

Consider the record given below.
IN: Record CNS(=O)(=O)Cc1ccc2[nH]cc(CCN(C)C)c2c1 : is its Papp B→A at 2 h, 1 μmol/L strictly below 30 nm/s?
OUT: met
